The reported numbers originate from ChEMBL document CHEMBL1932916.

# Assay Name: Half life in aqueous buffer pH 7.4 by HPLC analysis
# Type: physicochemical
Value Kind: half-life (h)

The examples below pair each entry with its known result.
CCOC(=O)COC(=O)NCCCC(C)Nc1cc(OC)cc2cccnc12 (stereo not given) : 240
COc1cc(NC(C)CCCNC(=O)Oc2ccc([N+](=O)[O-])cc2)c2ncccc2c1 (stereo not given) : 0.035

[a] COc1cc(NC(C)CCCNC(=O)Oc2ccc(Cl)cc2)c2ncccc2c1 (stereo not given)
[b] COc1cc(NC(C)CCCNC(=O)Oc2ccccc2)c2ncccc2c1 (stereo not given)
Hello, I am sorting some records. Could you say if a or b has the smaller half-life value? # reply format: chosen label
a
